# Protocol Description: Inhibition of catalytic activity of immunoproteasome 20s subunit beta2 in human Raji cells incubated for 1 hr by BODIPY(FL)-LU-112 probe based competitive activity based protein profiling assay
Measured IC50 by item

Previously resolved entries follow.
CC(C)C[C@H](NC(=O)CN1CCOCC1)C(=O)N[C@@H](C[C@H]1CC[C@H](C2CCCCC2)CC1)C(=O)N[C@@H](Cc1ccccc1)C(=O)N[C@@H](C)C(=O)[C@@]1(C)CO1 | > 100000 nM
C[C@H](NC(=O)[C@H](Cc1ccccc1)NC(=O)[C@H](C[C@H]1CC[C@@H](c2ccccc2)CC1)NC(=O)[C@H](Cc1ccccc1)N=[N+]=[N-])C(=O)[C@@]1(C)CO1 | 300 nM
C[C@H](NC(=O)[C@H](Cc1ccccc1)NC(=O)[C@H](C[C@H]1CC[C@H](c2ccccc2)CC1)NC(=O)[C@H](Cc1ccccc1)N=[N+]=[N-])C(=O)[C@@]1(C)CO1 | > 100000 nM

Qu. Find the recorded IC50 belonging to CC1=C(C(=O)N[C@H](C)C(=O)N[C@@H](Cc2c[nH]c3ccccc23)C(=O)N[C@@H](CC2CCCCC2)C(=O)[C@@]2(C)CO2)Cc2ccccc21 and report it.
Ans. > 1000 nM

====

# Tgt: Proteasome subunit beta type-2 (Homo sapiens)
# Protocol Description: Inhibition of catalytic activity of constitutive proteasome 20s subunit beta2 in human Raji cells incubated for 1 hr by BODIPY(FL)-LU-112 probe based competitive activity based protein profiling assay
Readout Name: IC50 (nM)

[A] COc1ccc(C[C@H](NC(=O)[C@H](Cc2ccccc2)N=[N+]=[N-])C(=O)N[C@@H](Cc2ccccc2)C(=O)N[C@@H](CC(C)C)C(=O)[C@@]2(C)CO2)cc1
[B] CC(C)C[C@H](NC(=O)[C@H](Cc1ccccc1)NC(=O)[C@H](CC1CCC(C)CC1)NC(=O)[C@H](Cc1ccccc1)N=[N+]=[N-])C(=O)[C@@]1(C)CO1 (stereo not given in full)
Qu. Could you kindly indicate whether A or B has the higher IC50 value? Answer by stating the label of the chosen item.
Ans. A

====

# Tgt: Proteasome subunit beta type-2 (Homo sapiens)
# Protocol Description: Inhibition of catalytic activity of constitutive proteasome 20s subunit beta2 in human Raji cells incubated for 1 hr by BODIPY(FL)-LU-112 probe based competitive activity based protein profiling assay
Readout Name: IC50 (µM)

CC(C)C[C@H](NC(=O)[C@H](Cc1ccccc1)NC(=O)[C@H](CCc1ccccc1)NC(=O)[C@H](Cc1ccccc1)N=[N+]=[N-])C(=O)[C@@]1(C)CO1 | 0.06
CC(C)C[C@H](NC(=O)[C@H](Cc1ccccc1)NC(=O)[C@H](Cc1ccccc1)NC(=O)[C@H](Cc1ccccc1)N=[N+]=[N-])C(=O)[C@@]1(C)CO1 | 0.066

====

# Tgt: Proteasome subunit beta type-2 (Homo sapiens, UniProt P49721)
# Protocol Description: Inhibition of catalytic activity of constitutive proteasome 20s subunit beta2 in human Raji cells incubated for 1 hr by BODIPY(FL)-LU-112 probe based competitive activity based protein profiling assay
pIC50: −log10 of the molar value.
Readout Name: pIC50

Previously resolved entries follow.
C[C@H](NC(=O)[C@H](Cc1ccccc1)NC(=O)[C@H](C[C@H]1CC[C@@H](c2ccccc2)CC1)NC(=O)[C@H](Cc1ccccc1)N=[N+]=[N-])C(=O)[C@@]1(C)CO1 | < 4.00
CC(C)C[C@H](NC(=O)CN1CCOCC1)C(=O)N[C@@H](C[C@H]1CC[C@H](C2CCCCC2)CC1)C(=O)N[C@@H](Cc1ccccc1)C(=O)N[C@@H](C)C(=O)[C@@]1(C)CO1 | < 4.00

Attention now turns to another entry.
Qu. Find the recorded pIC50 belonging to C[C@H](NC(=O)[C@H](Cc1ccccc1)NC(=O)[C@H](C[C@H]1CC[C@H](c2ccccc2)CC1)NC(=O)[C@H](Cc1ccccc1)N=[N+]=[N-])C(=O)[C@@]1(C)CO1 and report it.
Ans. < 4.00
